Test Target: T1, human amylin-3 (a) receptor (human, UniProt P30988 25-474; O60896 24-148)
T1 sequence (looked up) 1: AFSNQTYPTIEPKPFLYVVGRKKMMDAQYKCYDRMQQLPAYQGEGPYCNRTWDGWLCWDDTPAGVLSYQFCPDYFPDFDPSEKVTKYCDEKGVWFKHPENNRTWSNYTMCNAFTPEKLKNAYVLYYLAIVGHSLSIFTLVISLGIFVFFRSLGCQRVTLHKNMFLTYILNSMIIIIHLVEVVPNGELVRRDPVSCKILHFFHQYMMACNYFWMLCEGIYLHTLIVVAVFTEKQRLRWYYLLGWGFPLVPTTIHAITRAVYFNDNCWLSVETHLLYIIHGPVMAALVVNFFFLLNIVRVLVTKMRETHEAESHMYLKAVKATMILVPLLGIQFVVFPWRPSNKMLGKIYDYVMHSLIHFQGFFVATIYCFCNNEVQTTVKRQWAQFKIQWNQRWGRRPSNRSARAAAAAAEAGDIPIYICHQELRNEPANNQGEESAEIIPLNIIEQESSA
T1 sequence (looked up) 2: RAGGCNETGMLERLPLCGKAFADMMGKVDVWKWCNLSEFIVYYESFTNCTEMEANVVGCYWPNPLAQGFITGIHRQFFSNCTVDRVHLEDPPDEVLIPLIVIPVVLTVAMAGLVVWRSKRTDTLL
Experiment Summary: cell-based or functional assay
Starred links: 1 amine or outer side, 2 acyl side, 3 side chain; linkers in the order of their positions; H or OH if unused. Non-standard residues stand in square brackets, D forms with d. Groups on a side chain read outwards from the residue. *: point of attachment. Butyryl(4-SO2NHCO(CH2)16Tz) = O=C(CCCCCCCCCCCCCCCCc1nnn[nH]1)NS(=O)(=O)CCCC(=O)*; C20 diacid = O=C(O)CCCCCCCCCCCCCCCCCCC(=O)*; C18 diacid = O=C(O)CCCCCCCCCCCCCCCCC(=O)*; C16 diacid = O=C(O)CCCCCCCCCCCCCCC(=O)*; γGlu = O=C(O)[C@H](CCC(=O)[*:2])N[*:1]; Trx = NC[C@H]1CC[C@H](C(=O)O)CC1; AEEA = NCCOCCOCC(=O)O; Aib = CC(C)(N)C(=O)O
If the reported Human AmyR3 potency [EC50 (pM)] equals or exceeds 10 pM, assign satisfied. If not, assign not satisfied.

Solved cases below.
Compound 0436 (not fully specified (residue 20)) peptide: H[Aib]EGTFTSDVSSYLEEQAAKEFIEWLVRGRGEASELSTAALGRLSAELHELATLPRTETGSGSP-NH2	satisfied
Compound 0577 (not fully specified (residue 21)) peptide: H[Aib]EGTFTSDVSK([AEEA-AEEA-γGlu-C16 diacid])YLEEQAARKFIEWLVRGRGEASELSTAALGRLSAELHELATLPRTETGSGSP-NH2	satisfied
Compound 0261 (peptide) peptide: H[Aib]EGTFTSDK([AEEA-AEEA-γGlu-C16 diacid])SSYLEEQAAREFIAWLVRGRGGGGGEASELSTAALGRLSAELHELATLK([AEEA-AEEA-γGlu-C16 diacid])RTETGSGSP-NH2	satisfied
Compound 0141 (peptide) peptide: H[Aib]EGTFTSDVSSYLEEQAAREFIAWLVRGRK([γGlu-C20 diacid])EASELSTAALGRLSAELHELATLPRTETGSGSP-NH2	satisfied
Compound 0578 (not fully specified (residue 21)) peptide: H[Aib]EGTFTSDVSK([AEEA-AEEA-γGlu-C16 diacid])YLEEQAARKFIAWLVRGRQEASELSTAALGRLSAELHELATLPRTETGSGSP-NH2	satisfied
Compound 0089 (peptide) peptide: H[Aib]EGTFTSDVSSYLEEQAARK([AEEA-AEEA-γGlu-C18 diacid])FIEWLVRGK([AEEA-AEEA-γGlu-C18 diacid])GEGGEASELSTAALGRLSAELHELATLPRTETGSGSP-NH2	satisfied

## Task Check this binder for Human AmyR3 potency [EC50 (pM)] at or above 10 pM: Compound 0663 (peptide) peptide: H[Aib]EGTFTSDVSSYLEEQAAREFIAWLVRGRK([AEEA-AEEA-AEEA-AEEA-γGlu-C20 diacid])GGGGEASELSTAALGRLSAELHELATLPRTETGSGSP-NH2
## Result satisfied

## Task Check this binder for Human AmyR3 potency [EC50 (pM)] at or above 10 pM: Compound 0264 (peptide) peptide: H[Aib]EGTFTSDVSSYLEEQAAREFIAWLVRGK([AEEA-AEEA-γGlu-Trx-C20 diacid])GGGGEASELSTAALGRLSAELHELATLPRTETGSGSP-NH2
## Result satisfied

## Task Check this binder for Human AmyR3 potency [EC50 (pM)] at or above 10 pM: Compound 0147 (peptide) peptide: H[Aib]EGTFTSDVSSYLEEQAAREFIEWLVRGK(Butyryl(4-SO2NHCO(CH2)16Tz))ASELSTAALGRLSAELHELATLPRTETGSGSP-NH2
## Result satisfied

## Task Check this binder for Human AmyR3 potency [EC50 (pM)] at or above 10 pM: Compound 0057 (peptide) peptide: H[Aib]EGTFTSDVSSYLEGQAAK([AEEA-AEEA-γGlu-C18 diacid])EFIAWLVRGRGGQEK([AEEA-AEEA-γGlu-C18 diacid])GQEPEASELSTAALGRLSAELHELATLPRTETGSGSP-NH2
## Result satisfied
